test: Oral bioavailability in CD-1 mouse at 5 mg/kg by LC-MS/MS method; type: ADME, organism-based; details: in vivo
Measurement Kind: bioavailability (%)

CNC(=O)N1CCc2c(c(N3CCCc4cc(-c5cnn(C)c5)c(C(F)F)cc43)nn2C2CCOCC2)C1	73
CC(=O)N1CCc2c(c(N3CCCc4cc(-c5cnn(C)c5)c(C(F)F)cc43)nn2C2CCOCC2)C1	72

---

assay: Protein binding in mouse plasma at 5 uM incubated for 4 hrs measured by LC-MS/MS method; assay type: ADME, cell-free; details: read-out: PPB (converted)
Measurement Kind: fraction unbound at 4 h, 5 µM

CC(=O)N1CCc2c(c(N3CCCc4cc(-c5cnn(C)c5)c(C(F)F)cc43)nn2C2CCOCC2)C1	0.08
CNC(=O)N1CCc2c(c(N3CCCc4cc(-c5cnn(C)c5)c(C(F)F)cc43)nn2C2CCOCC2)C1	0.06

---

assay: Half life in Sprague-Dawley rat at 1 mg/kg, iv or 5 mg/kg, po by LC-MS/MS method; assay type: ADME, organism-based; conditions: in vivo
Measurement Kind: half-life (h)

I = CC(=O)N1CCc2c(c(N3CCCc4cc(-c5cnn(C)c5)c(C(F)F)cc43)nn2C2CCOCC2)C1
II = CNC(=O)N1CCc2c(c(N3CCCc4cc(-c5cnn(C)c5)c(C(F)F)cc43)nn2C2CCOCC2)C1
In: Between the entries labelled I and II , which has a larger half-life value on record? Response format: the label of the selected entry.
Out: II

---

assay: Oral bioavailability in Sprague-Dawley rat at 5 mg/kg by LC-MS/MS method; format: ADME, organism-based; conditions: in vivo
Measurement Kind: bioavailability (%)

I = CNC(=O)N1CCc2c(c(N3CCCc4cc(-c5cnn(C)c5)c(C(F)F)cc43)nn2C2CCOCC2)C1
II = CC(=O)N1CCc2c(c(N3CCCc4cc(-c5cnn(C)c5)c(C(F)F)cc43)nn2C2CCOCC2)C1
In: Identify the item whose bioavailability is the smaller number: I or II // output: label of the selected item
Out: I
(I: 37%, II: 93%)

---

pIC50 values, listed per item
biological target: Nucleosome-remodeling factor subunit BPTF (Homo sapiens, UniProt Q12830); assay: Displacement of biotinylated histone H3K14 peptide ligand from recombinant His-tagged BPTF (unknown origin) measured after 10 mins by TR-FRET assay
pIC50: −log10 of the molar value.

CC(=O)N1CCc2c(c(N3CCCc4cc(-c5cnn(C)c5)c(C(F)F)cc43)nn2C2CCOCC2)C1	< 4.70

In: Sample CNC(=O)N1CCc2c(c(N3CCCc4cc(-c5cnn(C)c5)c(C(F)F)cc43)nn2C2CCOCC2)C1 — what was its pIC50?
Out: < 4.70

---

assay: Volume of distribution at steady state in beagle dog at 1 mg/kg, iv or 5 mg/kg, po by LC-MS/MS method; assay type: ADME, organism-based, Canis lupus familiaris; conditions: in vivo, read-out: Vdss
Measurement Kind: Vd (L/kg)

P = CC(=O)N1CCc2c(c(N3CCCc4cc(-c5cnn(C)c5)c(C(F)F)cc43)nn2C2CCOCC2)C1
Q = CNC(=O)N1CCc2c(c(N3CCCc4cc(-c5cnn(C)c5)c(C(F)F)cc43)nn2C2CCOCC2)C1
In: Given the two records P and Q , choose the one whose Vd value is lower. Your choice should be expressed through its label.
Out: P
